The measurements presented in this section are drawn from paper PMC4072508.

experimental_system: T1, Mcl-1, Q07820
T1 chain: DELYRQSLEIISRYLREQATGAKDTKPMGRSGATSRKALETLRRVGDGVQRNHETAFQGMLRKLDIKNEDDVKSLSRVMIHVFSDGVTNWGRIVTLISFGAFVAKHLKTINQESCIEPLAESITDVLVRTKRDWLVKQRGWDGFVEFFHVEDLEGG
procedure_details: peptide SPOT array, c-Myc-tagged receptor at 1 uM or 100 nM, anti-c-Myc-Cy3
property_label: SPOT signal as a fraction of Bim BH3's signal on the same receptor and array

- binder: "DAIIQMIVELLKRVGDQWEEEQSLAS [C6orf222]"
  observed_result: 0.09
- binder: "AELEVECATQLRRFLDKLNFRQKLLN [PMAIP1]"
  observed_result: 0.1

A: AFTEREASEIMKSIGEAIQYLHSINI [MAPKAPK2]
B: SDIRDDISEQDRHVGRTVRGHPRKKL [TMEM184C]
Q. Sorting by SPOT signal as a fraction of Bim BH3's signal on the same receptor and array in descending order, would A or B appear first? Refer to your chosen item by its label in the answer.
A. B
